target: Interstitial collagenase (Homo sapiens, UniProt P03956); experiment: Enzyme Inhibition Assay; conditions: pH 7.5; 25 °C
Sequence (P03956 whole entry): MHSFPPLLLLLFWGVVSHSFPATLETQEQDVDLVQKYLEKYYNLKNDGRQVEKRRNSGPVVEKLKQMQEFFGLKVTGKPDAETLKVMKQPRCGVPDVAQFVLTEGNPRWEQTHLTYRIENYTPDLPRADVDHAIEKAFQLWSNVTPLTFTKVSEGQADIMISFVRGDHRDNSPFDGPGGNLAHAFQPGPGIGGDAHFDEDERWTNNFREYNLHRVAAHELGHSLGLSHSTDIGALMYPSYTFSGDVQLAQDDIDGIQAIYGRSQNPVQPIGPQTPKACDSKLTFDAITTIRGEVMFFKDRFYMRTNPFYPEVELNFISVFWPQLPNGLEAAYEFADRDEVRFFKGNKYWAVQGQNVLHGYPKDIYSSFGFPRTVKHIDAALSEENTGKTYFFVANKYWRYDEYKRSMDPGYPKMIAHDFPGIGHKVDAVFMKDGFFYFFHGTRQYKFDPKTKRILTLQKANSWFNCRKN
pKi: −log10 of the molar value.
parameterMeasured: pKi

(1) O=C(NO)C1(S(=O)(=O)c2ccc(Oc3ccccc3)cc2)CCN(CC2CC2)CC1
(2) COc1cccc(CN2CCC(CS(=O)(=O)c3ccc(Oc4ccccc4)cc3)(C(=O)NO)CC2)c1
(3) O=C(NO)C1(CS(=O)(=O)c2ccc(Oc3ccccc3)cc2)CCNCC1
Q: List the compounds shown above again, sorted by falling pKi values. // rank by listing labels in the order requested
A: 2, 1, 3

(a) O=C(NO)C1(CS(=O)(=O)c2ccc(Oc3ccccc3)cc2)CCN(CCc2ccccc2)CC1
(b) COCCN1CCC(C(=O)NO)(S(=O)(=O)c2ccc(Oc3ccccc3)cc2)CC1
Q: Which value of pKi is smaller, the one for a or the one for b ? Reply briefly: the label of your chosen item.
A: a

(A) C#CCN1CCC(C(=O)NO)(S(=O)(=O)c2ccc(Oc3ccccc3)cc2)CC1
(B) CN1CCC(C(=O)NO)(S(=O)(=O)c2ccc(Oc3ccccc3)cc2)CC1
Q: Which value of pKi is smaller, the one for A or the one for B ? Reply briefly: the label of your chosen item.
A: B

(1) CC(C)(C)OC(=O)N1CCC(CS(=O)(=O)c2ccc(Oc3ccccc3)cc2)(C(=O)NO)CC1
(2) O=C(NO)C1(S(=O)(=O)c2ccc(Oc3ccccc3)cc2)CCNCC1
Q: # returns the entry with the larger pKi; inputs 1 and 2 Reply briefly: the label of your chosen item.
A: 1
